study system: human glucagon receptor (human) (UniProt P47871)
Sequence (P47871 26-477): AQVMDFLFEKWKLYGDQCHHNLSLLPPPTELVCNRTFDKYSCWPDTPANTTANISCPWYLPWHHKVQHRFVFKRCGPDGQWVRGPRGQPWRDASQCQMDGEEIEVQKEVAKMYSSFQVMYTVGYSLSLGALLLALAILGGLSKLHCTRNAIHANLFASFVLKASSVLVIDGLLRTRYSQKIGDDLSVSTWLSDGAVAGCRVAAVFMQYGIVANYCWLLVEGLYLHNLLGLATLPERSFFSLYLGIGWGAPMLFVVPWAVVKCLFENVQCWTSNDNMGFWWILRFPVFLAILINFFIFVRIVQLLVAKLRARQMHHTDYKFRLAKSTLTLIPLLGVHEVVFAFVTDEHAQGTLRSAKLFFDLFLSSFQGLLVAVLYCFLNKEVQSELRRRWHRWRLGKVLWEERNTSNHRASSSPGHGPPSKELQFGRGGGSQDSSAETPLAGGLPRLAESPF
protocol summary: cell-based or functional assay
Measured Relative cAMP EC50 by item
Number plus unit, in that order.

## Task Name the reported Relative cAMP EC50 value associated with the binder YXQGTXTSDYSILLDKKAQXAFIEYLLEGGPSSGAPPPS (synthetic construct; SITE 2: note = 2-Aminoisobutyric Acid; SITE 6: note = alpha-methyl-L-phenylalanine; SITE 17: note = Lysine is chemically modified through conjugation of the epsilon-amino group of the Lysine side chain with (2-[2-(2-Amino-ethoxy)-ethoxy]-acetyl)2-(gamma-Glu)-CO-(CH2 )16-CO2H; SI) [Example 419]
## Result 8.52 nM

## Task Consider the binder shown here: YXQGTXTSDXXIXLDXKAQXSFIEXLIEGGPSSGEPPPE (synthetic construct; SITE 2: note = 2-Aminoisobutyric Acid; SITE 6: note = alpha-methyl-2-fluoro-L-phenylalanine; SITE 10: note = 3-(4-Pyridyl)-L-alanine; SITE 11: note = alpha-methyl-L-serine; SITE 13: note = alpha-methyl-leucine; SITE 16: note = L-ornithine; SITE 17: note = Lysine is chemically mo) [Example 436] What is its recorded Relative cAMP EC50?
## Result 2.27 nM

## Task I am curious: what Relative cAMP EC50 value has been reported for YXQGTXTSDYSILLDXKAQXAFIEYLEEGGPSSGAPPPS (synthetic construct; SITE 2: note = 2-Aminoisobutyric Acid; SITE 6: note = alpha-methyl-2-fluoro-L-phenylalanine; SITE 16: note = L-ornithine; SITE 17: note = Lysine is chemically modified through conjugation of the epsilon-amino group of the Lysine side chain with (gamma-Glu)2-CO-(CH2)16-CO2H; SITE) [Example 414] ?
## Result 4.56 nM

## Task Which Relative cAMP EC50 is reported for this binder? YXQGTFTSDXXIXLDXKAQXQFIQXLIEXGPSSGAPPPSGGGE (not fully specified; non-natural residues (Aib, 4Pal, αMeS, Orn, Me4Pal); lipidated Lys; C-amide; synthetic construct; SITE 2: note = 2-Aminoisobutyric Acid; SITE 10: note = 3-(4-Pyridyl)-L-alanine; SITE 11: note = alpha-methyl-L-serine; SITE 13: note = alpha-methyl-leucine; SITE 16: note = L-ornithine; SITE 17: note = Lysine is chemically modified through conjugation of the epsilon-amino group) [Example 1136]
## Result 1.26 nM

## Task Report Relative cAMP EC50 for YXQGTFTSDFSXXLDKKAQXAFIEWLLEGGESSGEPPPSGE (synthetic construct; SITE 2: note = 2-Aminoisobutyric Acid; SITE 12: note = L-ornithine; SITE 13: note = alpha-methyl-leucine; SITE 17: note = Lysine is chemically modified through conjugation of the epsilon-amino group of the Lysine side chain with (2-[2-(2-Amino-ethoxy)-ethoxy]-acetyl)-(gamma-Glu)) [Example 123] please.
## Result 4.55 nM
